targetOrTestSystem: mGlu5 receptor (Rattus norvegicus)
Construct: expressed in transfected cells
Sequence (P31424 21-1203): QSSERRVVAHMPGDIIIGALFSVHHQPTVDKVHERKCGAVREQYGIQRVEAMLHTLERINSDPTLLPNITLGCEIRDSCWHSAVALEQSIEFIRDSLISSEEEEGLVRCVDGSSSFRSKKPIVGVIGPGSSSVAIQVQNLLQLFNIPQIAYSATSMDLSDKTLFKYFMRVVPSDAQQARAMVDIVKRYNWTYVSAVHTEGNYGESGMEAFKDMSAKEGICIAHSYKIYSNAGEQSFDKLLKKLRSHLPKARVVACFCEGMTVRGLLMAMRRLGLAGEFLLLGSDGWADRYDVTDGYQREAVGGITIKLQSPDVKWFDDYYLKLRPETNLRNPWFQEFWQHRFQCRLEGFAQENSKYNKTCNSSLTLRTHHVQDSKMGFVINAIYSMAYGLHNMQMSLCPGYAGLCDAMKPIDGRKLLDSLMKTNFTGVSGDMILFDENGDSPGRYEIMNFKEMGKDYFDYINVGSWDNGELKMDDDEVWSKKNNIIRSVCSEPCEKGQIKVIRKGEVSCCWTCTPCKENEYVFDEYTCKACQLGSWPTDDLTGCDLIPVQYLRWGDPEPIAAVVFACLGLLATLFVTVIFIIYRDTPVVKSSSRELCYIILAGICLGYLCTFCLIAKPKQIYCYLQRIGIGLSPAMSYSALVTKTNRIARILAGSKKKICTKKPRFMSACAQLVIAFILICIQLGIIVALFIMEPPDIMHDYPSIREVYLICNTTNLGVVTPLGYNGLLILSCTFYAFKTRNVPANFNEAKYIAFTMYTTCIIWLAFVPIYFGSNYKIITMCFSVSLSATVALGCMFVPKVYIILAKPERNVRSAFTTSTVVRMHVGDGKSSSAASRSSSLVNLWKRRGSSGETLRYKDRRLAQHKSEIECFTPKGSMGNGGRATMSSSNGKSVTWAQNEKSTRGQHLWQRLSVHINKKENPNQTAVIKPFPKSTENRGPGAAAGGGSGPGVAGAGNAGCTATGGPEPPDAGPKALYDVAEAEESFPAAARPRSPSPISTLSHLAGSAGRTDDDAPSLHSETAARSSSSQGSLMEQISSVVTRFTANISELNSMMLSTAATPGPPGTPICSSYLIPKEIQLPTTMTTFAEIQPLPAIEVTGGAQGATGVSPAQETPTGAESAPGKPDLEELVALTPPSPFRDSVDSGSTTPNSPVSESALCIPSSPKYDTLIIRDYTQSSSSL
procedureDetails: Shift factor in Ca2+ mobilization assay (rat)
Assay type: cell-based
measuredAttribute: Shift (rat, 10 uM)
Note: the reply should be a number with no unit written.

Example entries begin here.
C(#Cc1cnc2nc(N3CCOCC3)nn2c1)c1ccccc1 | 11.31
CN1C(C)(C)CN(c2ccc(C#Cc3ccccc3)cn2)S1(=O)=O | 1.66
CN1C(=O)N(c2ccc(C#Cc3cncc(Cl)c3)cn2)CC1(C)C | 2.28
CN(C(=O)c1ncc(C#Cc2cccc(F)c2)cn1)C(C)(C)C | 1.86
CC1(C)CCN(c2ccc(C#Cc3ccccc3)cn2)C(=O)O1 | 7.67
CN1C(=O)N(c2ccc(C#Cc3ccccc3)cn2)[C@@H]2CCC[C@@H]21 | 0.88
CN(C(=O)c1ccc(C#Cc2cc(F)ccc2F)cn1)C(C)(C)C | 1.62
CN1C(=O)N(c2ccc(C#Cc3ccccc3)nn2)[C@@H]2CCC[C@@H]21 | 1.70

Ask | If you can, please state the reported Shift (rat, 10 uM) value of CC1(C)CCN(c2ccc(C#Cc3cccc(Cl)c3)cn2)C(=O)C1 .
Reply | 3.92

---

procedureDetails: HTD/LTD dose, tolerability in rat
measuredAttribute: HTD/LTD Dose (rat) (mg/kg)
Enter your answer as a number in mg/kg; do not include the unit.

Guide cases for HTD/LTD Dose (rat), answers given:
CN(C(=O)c1ncc(C#Cc2cccc(F)c2)cn1)C(C)(C)C [Example 11] | 100
CN1C(=O)N(c2ccc(C#Cc3ccccc3)cn2)CC1(C)C [Example 14] | 3
CC1(C)CN(c2ccc(C#Cc3ccccc3)cn2)C(=O)O1 [Example 9] | 30
CC1(C)CCN(c2ccc(C#Cc3cccc(Cl)c3)cn2)C(=O)C1 [Example 13] | 100

Here is another compound to look at.
Ask | // query HTD/LTD Dose (rat) value for entry CN1C(=O)N(c2ncc(C#Cc3ccc(F)cc3)cn2)CC1(C)C [Example 7]
Reply | 100

---

procedureDetails: HTD/LTD dose, tolerability in rat
condition: observation at the HTD/LTD dose
measuredAttribute: HTD/LTD Dose (rat) (observation)

Guide cases for HTD/LTD Dose (rat) (observation), answers given:
CN1C(=O)N(c2ccc(C#Cc3ccccc3)cn2)[C@@H]2CCC[C@@H]21 | well tolerated
CC1(C)CN(c2ccc(C#Cc3ccccc3)cn2)C(=O)O1 | well tolerated
CN1C(=O)N(c2ncc(C#Cc3ccc(F)cc3)cn2)CC1(C)C | well tolerated
CN(C(=O)c1ccc(C#Cc2cc(F)ccc2F)cn1)C(C)(C)C | well tolerated
CN1C(=O)N(c2ccc(C#Cc3cccc(F)c3)cn2)[C@@H]2CCC[C@@H]21 | well tolerated

Ask | // HTD/LTD Dose (rat) (observation) lookup, key: CC1(C)CCN(c2ccc(C#Cc3ccccc3)cn2)C(=O)O1
Reply | seizures

Ask | Which HTD/LTD Dose (rat) (observation) is listed for CC1(C)CCN(c2ccc(C#Cc3cccc(Cl)c3)cn2)C(=O)C1 ?
Reply | seizures

---

procedureDetails: HTD/LTD dose, tolerability in rat
condition: observation at the HTD/LTD dose
measuredAttribute: HTD/LTD Dose (rat) (observation)

CC1(C)CCN(c2ccc(C#Cc3ccccc3)cn2)C(=O)C1 | seizures
CN1C(C)(C)CN(c2ccc(C#Cc3ccccc3)cn2)S1(=O)=O | well tolerated
CC1(C)CN(c2ccc(C#Cc3cccc(F)c3)cn2)C(=O)O1 | well tolerated
C(#Cc1cnc2nc(N3CCOCC3)nn2c1)c1ccccc1 | seizures
CN1C(=O)N(c2ccc(C#Cc3cncc(Cl)c3)cn2)CC1(C)C | well tolerated
CO[C@@H]1C(=O)N(c2ncc(C#Cc3cccc(F)c3)cn2)CC1(C)C | well tolerated
CN(C(=O)c1ncc(C#Cc2cccc(F)c2)cn1)C(C)(C)C | well tolerated
CN1C(=O)N(c2ccc(C#Cc3ccccc3)nn2)[C@@H]2CCC[C@@H]21 | well tolerated

Ask | Would you kindly share the measured HTD/LTD Dose (rat) (observation) for CC1(C)CC(=O)N(c2ccc(C#Cc3cccc(F)c3)cn2)N1 ?
Reply | well tolerated

---

Reported minimal effective dose by item:
procedureDetails: Body temperature test
Format: in vivo
condition: rat, body temperature at 2 h, read-out: BT test MED (rat)
Answer shape: numeric part, then the unit.

Examples with their reported minimal effective dose follow.
CC1(C)CCN(c2ccc(C#Cc3cccc(Cl)c3)cn2)C(=O)C1 | 0.1 mg/kg
CC1(C)CC(=O)N(c2ccc(C#Cc3cccc(F)c3)cn2)N1 | 0.3 mg/kg
CN1C(=O)N(c2ccc(C#Cc3ccccc3)cn2)CC1(C)C | 0.3 mg/kg

In the following, a different compound is considered.
Ask | Could you share which minimal effective dose value was measured for CN1C(=O)N(c2ncc(C#Cc3ccc(F)cc3)cn2)CC1(C)C ?
Reply | 0.3 mg/kg

---

targetOrTestSystem: human mGlu5a receptor (Homo sapiens)
Construct: expressed in transfected cells
procedureDetails: Shift factor in Ca2+ mobilization assay (human)
Type: cell-based
condition: shift factor = EC50(glutamate)/EC50(glutamate + test compound)
Measured Shift (hum, 10 uM) accompanies every entry in the list below.
Write no unit; give the number alone.

Observe how each entry below is paired with its result.
CN1C(=O)N(c2ccc(C#Cc3ccccc3)cn2)[C@@H]2CCC[C@@H]21 [Example 2] | 1.02
CC1(C)CN(c2ccc(C#Cc3cccc(F)c3)cn2)C(=O)O1 [Example 6] | 1.40
C(#Cc1cnc2nc(N3CCOCC3)nn2c1)c1ccccc1 [Example 16] | 12.13
CC1(C)CN(c2ccc(C#Cc3ccccc3)cn2)C(=O)O1 [Example 9] | 1.70
CN1C(=O)N(c2ccc(C#Cc3cncc(Cl)c3)cn2)CC1(C)C [Example 8] | 3.60
CN(C(=O)c1ncc(C#Cc2cccc(F)c2)cn1)C(C)(C)C [Example 11] | 2.06
CN1C(=O)N(c2ccc(C#Cc3ccccc3)nn2)[C@@H]2CCC[C@@H]21 [Example 4] | 2.46
CN(C(=O)c1ccc(C#Cc2cc(F)ccc2F)cn1)C(C)(C)C [Example 12] | 1.86
CN1C(C)(C)CN(c2ccc(C#Cc3ccccc3)cn2)S1(=O)=O [Example 5] | 2.02
CC1(C)CCN(c2ccc(C#Cc3ccccc3)cn2)C(=O)C1 [Example 17] | 15.95

Next compound, please.
Ask | Can you look up the measured Shift (hum, 10 uM) of CC1(C)CCN(c2ccc(C#Cc3cccc(Cl)c3)cn2)C(=O)C1 [Example 13] for me?
Reply | 4.74

---

targetOrTestSystem: human mGlu5a receptor (Homo sapiens, UniProt P41594)
Construct: expressed in transfected cells
Sequence (P41594 21-1180 isoform P41594-2 limits assumed): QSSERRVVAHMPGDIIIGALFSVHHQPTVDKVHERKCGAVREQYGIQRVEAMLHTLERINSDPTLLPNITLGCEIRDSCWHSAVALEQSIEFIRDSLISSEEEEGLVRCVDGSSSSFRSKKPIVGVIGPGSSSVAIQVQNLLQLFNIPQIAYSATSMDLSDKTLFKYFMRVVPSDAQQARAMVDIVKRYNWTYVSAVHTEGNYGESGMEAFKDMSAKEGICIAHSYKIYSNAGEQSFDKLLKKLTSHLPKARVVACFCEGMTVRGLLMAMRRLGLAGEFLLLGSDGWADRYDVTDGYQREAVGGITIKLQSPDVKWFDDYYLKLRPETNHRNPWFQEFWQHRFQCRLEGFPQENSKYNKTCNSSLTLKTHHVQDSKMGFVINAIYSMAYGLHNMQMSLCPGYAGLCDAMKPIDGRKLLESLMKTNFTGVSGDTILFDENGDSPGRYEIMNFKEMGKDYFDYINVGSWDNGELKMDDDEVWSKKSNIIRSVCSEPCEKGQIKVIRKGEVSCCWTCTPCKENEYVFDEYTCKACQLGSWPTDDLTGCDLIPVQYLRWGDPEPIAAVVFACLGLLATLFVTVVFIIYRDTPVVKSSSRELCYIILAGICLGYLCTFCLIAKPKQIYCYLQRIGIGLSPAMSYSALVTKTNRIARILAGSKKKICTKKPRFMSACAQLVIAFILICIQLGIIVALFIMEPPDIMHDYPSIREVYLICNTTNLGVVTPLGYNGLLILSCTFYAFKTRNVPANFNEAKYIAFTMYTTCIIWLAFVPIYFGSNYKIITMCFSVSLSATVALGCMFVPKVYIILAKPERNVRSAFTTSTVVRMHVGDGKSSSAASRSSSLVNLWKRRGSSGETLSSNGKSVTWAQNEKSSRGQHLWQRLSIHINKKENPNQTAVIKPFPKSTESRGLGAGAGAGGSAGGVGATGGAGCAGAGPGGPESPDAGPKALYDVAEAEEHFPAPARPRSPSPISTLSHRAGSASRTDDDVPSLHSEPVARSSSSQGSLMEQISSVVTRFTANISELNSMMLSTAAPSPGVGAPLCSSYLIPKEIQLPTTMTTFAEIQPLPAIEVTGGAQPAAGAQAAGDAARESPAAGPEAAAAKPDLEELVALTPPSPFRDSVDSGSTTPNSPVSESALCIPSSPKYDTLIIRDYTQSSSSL
procedureDetails: Shift factor in Ca2+ mobilization assay (human)
Type: cell-based
condition: shift factor = EC50(glutamate)/EC50(glutamate + test compound)
Entries and their measured Shift (hum, 10 uM) follow.
Write no unit; give the number alone.

CC1(C)CC(=O)N(c2ccc(C#Cc3cccc(F)c3)cn2)N1 | 1.75
CN1C(=O)N(c2ccc(C#Cc3cccc(F)c3)cn2)[C@@H]2CCC[C@@H]21 | 0.87
CN1C(=O)N(c2ncc(C#Cc3ccc(F)cc3)cn2)CC1(C)C | 2.44

Ask | So what does the record say about Shift (hum, 10 uM) for CC1(C)CCN(c2ccc(C#Cc3ccccc3)cn2)C(=O)O1 ?
Reply | 9.73

Ask | Look up Shift (hum, 10 uM) for this compound: CO[C@@H]1C(=O)N(c2ncc(C#Cc3cccc(F)c3)cn2)CC1(C)C
Reply | 3.46

---

procedureDetails: HTD/LTD dose, tolerability in rat
Listed here are compounds together with their documented HTD/LTD Dose (rat).
Output spec: scalar in mg/kg, unitless text.

CN1C(=O)N(c2ccc(C#Cc3ccccc3)nn2)[C@@H]2CCC[C@@H]21 | 100
CN1C(=O)N(c2ccc(C#Cc3ccccc3)cn2)[C@@H]2CCC[C@@H]21 | 100

The record that follows has no HTD/LTD Dose (rat) shown yet.
Ask | I'd like to know its HTD/LTD Dose (rat). The compound in question is CN1C(C)(C)CN(c2ccc(C#Cc3ccccc3)cn2)S1(=O)=O
Reply | 100

---

procedureDetails: HTD/LTD dose, tolerability in rat
Reported values of HTD/LTD Dose (rat) for individual entries
Provide only the numeric value, understood in mg/kg.

Here's what some known entries look like.
CN1C(=O)N(c2ccc(C#Cc3cncc(Cl)c3)cn2)CC1(C)C | 100
CN1C(=O)N(c2ccc(C#Cc3cccc(F)c3)cn2)[C@@H]2CCC[C@@H]21 | 100

Ask | Quick one: HTD/LTD Dose (rat) of CC1(C)CCN(c2ccc(C#Cc3ccccc3)cn2)C(=O)C1 ?
Reply | 100

Ask | Using the record for C(#Cc1cnc2nc(N3CCOCC3)nn2c1)c1ccccc1 , report its HTD/LTD Dose (rat).
Reply | 10

Ask | Tell me the measured HTD/LTD Dose (rat) of CC1(C)CCN(c2ccc(C#Cc3ccccc3)cn2)C(=O)O1 , please.
Reply | 3
